# Tested on: M14 melanoma
# TEST DESCRIPTION: NCI tumour cell line growth inhibition, 48 h
# Lookup of reported TGI keyed by entry

Check out these entries, answers already filled in.
compound=O=C(c1ccccc1)C1S(=O)(=O)OCCOS1(=O)=O data_value="> 100 µM"
compound=O=C(NC(=O)c1cc(-c2ccccc2)n[nH]1)c1ccccc1 data_value="> 100 µM"
compound="c1ccc(C2OC3(CCC[C@H]4C[C@H]43)O[C@H]2c2ccccc2)cc1 (some centres not stated)" data_value="> 100 µM"
compound=O=C(N=c1ccc2nc(=O)[nH]n(O)c-2c1)C(F)(F)F data_value="> 100 µM"
compound=NC1=NS(=O)(=O)Nc2nc(-c3ccccc3)[nH]c21 data_value="> 100 µM"
compound="C/C=C1\\CN(C(=O)OC(C)(C)C)C1C(=O)OC(C)(C)C (configuration not stated)" data_value="> 100 µM"
compound=COc1ccc(Cc2coc3ccccc3c2=O)cc1OC data_value="> 100 µM"
compound=COc1ccc([C@@H]2CC(=O)N2)cc1 data_value="> 100 µM"
compound="O=C(CC1OC(O)C(Cl)=C1Cl)c1cccnc1 (configuration not stated)" data_value="> 100 µM"
compound=CCN(CC)CCCNc1cc(OC)cc2nc3cc(Cl)ccc3nc12 data_value="3.02 µM"

Returns the measured TGI for the input compound. Input: c1ccc2c3c([nH]c2c1)[C@H]1C2CCCCN2CN1CC3 (some centres not stated) > 100 µM

Returns the measured TGI for the input compound. Input: CC(N)(Cc1c[nH]c2cccc(F)c12)C(=O)O (configuration not stated) > 1000 µM

Returns the measured TGI for the input compound. Input: CC(=O)Nc1c(Nc2ccccc2)[nH]c(C)nc1=S > 100 µM

Returns the measured TGI for the input compound. Input: Cc1cc(S(=O)(=O)Nc2nc3ccccc3nc2-c2ccc(Cl)cc2)c(S)cc1Cl 39.5 µM

Returns the measured TGI for the input compound. Input: Cc1c(N=Nc2ccccc2)c(C)n(C2OC(CO)C(O)C(O)C2O)c(=S)c1C#N (configuration not stated) 65.8 µM

Returns the measured TGI for the input compound. Input: Cc1sc2c(c1C)/C(=N\O)c1cccn1-2 > 100 µM

Returns the measured TGI for the input compound. Input: CN(C)C(=N/O)/C(=N\O)N(C)C > 100 µM

Returns the measured TGI for the input compound. Input: CC(C)(C)C1CCC2c3c([nH]c4ccccc34)C3C(=O)N(c4ccc(Cl)cc4)C(=O)C3C2C1 (configuration not stated) > 100 µM

Returns the measured TGI for the input compound. Input: CC1=C2[C@@H](CC1)[C@]1(C)O[C@@](C(C)C)(C[C@H]1OC(=O)CO)[C@H]2OC(=O)C1CC1c1ccccc1 (some centres not stated) 29.3 µM

Returns the measured TGI for the input compound. Input: S=c1[nH]n2c(CCCCCCCCc3nnc4sc(=S)[nH]n34)nnc2s1 > 100 µM

----------
# System: SW-620 colon
# TEST DESCRIPTION: NCI tumour cell line growth inhibition, 48 h
# Lookup of reported TGI keyed by entry

compound="Cc1cccc(C)c1NC(=O)C1=NC(=S)NC(c2ccccc2)C1c1nc2ccccc2s1 (stereo not drawn)" tested_on="SW-620 colon" measure_name=TGI data_value="> 100 µM"
compound=NC1=Nc2cc(Cl)ccc2Sc2nc3ccccc3n21 tested_on="SW-620 colon" measure_name=TGI data_value="> 100 µM"

Now examine the next entry.
Returns the measured TGI for the input compound. Input: Cc1ccc(C(=O)Nc2ccc(CP(=O)(O)O)cc2CP(=O)(O)O)cc1NC(=O)Nc1cc(C(=O)Nc2ccc(CP(=O)(O)O)cc2CP(=O)(O)O)ccc1C > 100 µM

----------
# Lookup of reported GI50 keyed by entry
# Test system: 786-0 renal
# TEST DESCRIPTION: NCI tumour cell line growth inhibition, 48 h

compound=COC12C=C/C(=C(/C(=O)OCc3ccccn3)C(=O)CCCCCCCCC3(OC)C=C/C(=C(/C(=O)OCc4ccccn4)C(=O)CCCCCCCC1)O3)O2 data_value="0.326 µM"
compound=COc1ccc2c(c1)c(-c1nc(-c3c[nH]c4ccncc34)cs1)cn2C data_value="1.7 µM"

Now examine the next entry.
Returns the measured GI50 for the input compound. Input: CCC(C)[C@H](NC(=O)Nc1cc(C(F)(F)F)cc(C(F)(F)F)c1)C(=O)N[C@@H](Cc1cn(C)cn1)C(=O)OC (stereo partly drawn) 1.19 µM

----------
# Tested on: M14 melanoma
# TEST DESCRIPTION: NCI tumour cell line growth inhibition, 48 h; in the data active = GI50 below about 0.43 µM; inactive = the rest
Field 'call' accepts active, inactive

compound=COC(=O)c1ccc(CN2C(=O)C(Cl)=C(Nc3cccc(Cl)c3C)C2=O)cc1 label_value=inactive
compound="Cc1csc2[n+]1-c1ccccc1N(C(=O)Nc1ccccc1)C(C)C2 (centres undefined)" label_value=inactive
compound=COc1cc(/C=C/C(=O)/C=C/c2ccc(-n3ccnc3C)cc2)ccc1O label_value=inactive
compound="O=C1CC(c2cccc(F)c2)Nc2cc3c(cc21)OCO3 (centres undefined)" label_value=active
compound="C[CH2][Ge]([CH2]C)([CH2]C)[O]C(=O)C(OC(C)=O)c1ccccc1 (centres undefined)" label_value=inactive
compound=CC1(C)CNc2cc(NC(=O)c3cccnc3NCc3ccncc3)ccc21 label_value=inactive
compound=C[C@]12CC[C@H]3[C@@H](CC=C4C[C@@H](N5CCCC5)CC[C@@]43C)[C@@H]1C/C(=C\c1cccc(OCCN3CCOCC3)c1)[C@@H]2O label_value=inactive
compound="CCC(C)Nc1ccc(N)cc1 (centres undefined)" label_value=inactive
compound=O=C(N/N=C\c1ccc(N(CCCl)CCCl)cc1[N+](=O)[O-])c1cccnc1 label_value=inactive
compound=COc1ccc2c(c1)c(-c1nc(-c3c[nH]c4ccncc34)cs1)cn2C label_value=inactive

Outcome logged for NCCCC[C@@H]1NC(=O)[C@H](CC(=O)O)NC(=O)CNC(=O)[C@H](CCCN=C(N)N)NC(=O)[C@@H](N)CSSC[C@@H](C(=O)O)NC(=O)[C@H](CC(=O)O)NC(=O)[C@@H]2CCCN2C(=O)CNC1=O in this assay: inactive

Outcome logged for COc1cccc(CC(C)=C(c2ccc(OCCN3CCCCC3)cc2)c2ccc(OCCN3CCCCC3)cc2)c1 in this assay: inactive

Outcome logged for O=C([CH-]C(=O)c1ccccc1)c1ccccc1.[CH-]1CCCCC1.[CH-]1CCCCC1.[CH-]1CCCCC1.[Sn+4] in this assay: inactive

Outcome logged for CC1=C(SCCC(=O)OC(C[Se]C2=C(C)C(=O)c3ccccc3C2=O)C(=O)NCCCCCC(=O)OCc2ccccc2)C(=O)c2ccccc2C1=O (centres undefined) in this assay: inactive

----------
# Test system: HT29 colon
# TEST DESCRIPTION: NCI tumour cell line growth inhibition, 48 h
MEASURE NAME: TGI (µM)
Numeric only. Scale: µM

Check out these entries, answers already filled in.
compound="COC(=O)c1ccc(C)cc1CC1Cc2ccc(C)cc2C1=O (stereo not drawn)" unit=µM data_value=11.1
compound="COc1c2c(c3ccccc3c1O)C1C=CC2C1 (stereo not drawn)" unit=µM data_value=39.2
compound=Cc1cc(S(=O)(=O)Nc2nc3ccccc3nc2-c2ccc(Cl)cc2)c(S)cc1Cl unit=µM data_value=31.4

Returns the measured TGI for the input compound. Input: N=c1c2c(=S)n(-c3ccccc3)c(=S)n(-c3ccccc3)c2nc(SCCN2CCCC2)n1-c1ccccc1 3.6

Returns the measured TGI for the input compound. Input: COc1cc(OC)c2c3c(OC)cc(OC)c4c(=O)c(O)c(C[C@@H](C)O)c(c5c(C[C@@H](C)O)c(O)c(=O)c1c25)c43 73

Returns the measured TGI for the input compound. Input: O=C1C(Cl)=C(N(C(=O)c2ccccc2)C(=O)c2ccccc2)C(=O)c2ccccc21 69.3

Returns the measured TGI for the input compound. Input: O=[N+]([O-])C=C(c1ccc(Cl)cc1)c1ccc(Cl)cc1 35.5

Returns the measured TGI for the input compound. Input: CCCCCCCCCCCCCCC(O)C[N+](C)(CCO)CCO (stereo not drawn) 12.1

Returns the measured TGI for the input compound. Input: CC(C)=CCc1[nH]c2ccccc2c1C1=C(O)C(=O)C(c2c(CC=C(C)C)[nH]c3ccccc23)=C(O)C1=O 6.34

Returns the measured TGI for the input compound. Input: C=C1C(=O)O[C@@H]2[C@H](O)[C@@H](C)[C@@H]3C=CC(=O)[C@@]3(C)[C@@H](OC(=O)/C(C)=C/C)[C@H]12 4.15

Returns the measured TGI for the input compound. Input: CCC(C)Nc1ccc(N)cc1 (stereo not drawn) 10.7

----------
# Lookup of reported TGI keyed by entry
# Tested on: OVCAR-8 ovarian
# TEST DESCRIPTION: NCI tumour cell line growth inhibition, 48 h

Returns the measured TGI for the input molecule. Input: CC1(C)CNc2cc(NC(=O)c3cccnc3NCc3ccncc3)ccc21 > 100 µM

Returns the measured TGI for the input molecule. Input: CCC(C)[C@H](NC(=O)Nc1cc(C(F)(F)F)cc(C(F)(F)F)c1)C(=O)N[C@@H](Cc1cn(C)cn1)C(=O)OC (some centres undefined) 1.33 µM

Returns the measured TGI for the input molecule. Input: CC(=O)Nc1c(S(=O)(=O)c2ccccc2)c(C)c(C)n1Cc1ccccc1 > 100 µM

Returns the measured TGI for the input molecule. Input: COc1cc(OC)cc(-c2n/c(=C\c3c(O)[nH]c4ccc(OC)cc34)cc3c2=Nc2ccccc2-3)c1 32.4 µM

Returns the measured TGI for the input molecule. Input: Cc1oc2c(c1C)S(=O)(=O)C(C#N)=C(N(C)C)N2 > 100 µM

Returns the measured TGI for the input molecule. Input: COc1c(-c2nc3nc(N4CCN(C)CC4)ccc3[nH]2)cc(OC)c2c1nc(COC(C)=O)n2C > 100 µM

Returns the measured TGI for the input molecule. Input: O=C1C=CC=C/C1=C1/SC(c2ccccc2)=C(O)N1c1ccccc1 > 100 µM

Returns the measured TGI for the input molecule. Input: Nc1ccc(C(=O)N/C(=C\c2cccc([N+](=O)[O-])c2)c2nc3[nH]c(=S)[nH]c(=O)c3[nH]2)cc1 > 90.3 µM

Returns the measured TGI for the input molecule. Input: O=C1C(c2ccc(Br)cc2)=[N+]([O-])c2ccccc21 25.1 µM
